ASSAY_SYSTEM: T1, CaBdf1 BD2 (GST-tagged, wild-type) (Candida albicans (strain SC5314 / ATCC …, UniProt Q5A4W8))
T1 chain: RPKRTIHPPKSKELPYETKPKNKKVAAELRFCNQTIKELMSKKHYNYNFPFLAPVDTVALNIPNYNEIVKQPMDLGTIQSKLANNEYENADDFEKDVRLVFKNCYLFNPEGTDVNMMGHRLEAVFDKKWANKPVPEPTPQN
PROTOCOL_SUMMARY: histone peptide array (Active Motif MODified), 1 uM GST-tagged bromodomain, anti-GST detection, normalized mean intensity
Numbered stars: 1 amine (or outer) side, 2 acyl side, 3 side chain; on linkers, the order of the positions; unused ones are H or OH. Square brackets hold non-standard residues; d marks the D form. Ends that are not written are not given here. Arg(Me2a) = CN(C)C(=N)NCCC[C@H](N)C(=O)O; Kac = CC(=O)NCCCC[C@H](N[*:1])C(=O)[*:2]; pS = N[C@@H](COP(=O)(O)O)C(=O)O
Parameter class (string): assigned from measured binding score. Ranges: bin 0 (below 0.004), bin 1 (0.004 to below 0.008), bin 2 (0.008 or more)

These recorded examples may help you get a feel for the data.
BINDER	QUALITATIVE_LABEL
A[Arg(Me2a)]T[Kac]QTAR[Kac]STGGKAPRKQ	bin 2
SGRGKGGKGLGKGGAKRHR (S G Rme2s G K G G K G L G K G G A K R H R)	bin 1
SGRGKGGKGLGKGGAKRHR (pS G Rme2a G Kac G G K G L G K G G A K R H R)	bin 1

(Q) Please indicate the class for ARTKQTARKSTGGKAPRKQ (A R T K Q T A Rme2a Kme3 pS pT G G K A P R K Q) based on its binding score.
(A) bin 0

(Q) Please indicate the class for SGRGKGGKGLGKGGAKRHR (S G R G Kac G G Kac G L G Kac G G A K R H R) based on its binding score.
(A) bin 2

(Q) Please indicate the class for "AR(me2s)TK(Me)QTARKSTGGKAPRKQ" based on its binding score.
(A) bin 0

(Q) Please indicate the class for "[pS]GRGK(Ac)QGGK(Ac)ARAK(Ac)AKSRSS" based on its binding score.
(A) bin 2

(Q) Please indicate the class for PDPAK(Ac)SAPAPKK(Ac)G[pS]KKAVT [H2B 1-19] based on its binding score.
(A) bin 1

Value source: paper PMC5454392
